tested on: KB; assay: In vitro antitumor activity against human epidermoid carcinoma KB cells by MTT assay.; type: functional, cell-based
readout.name: IC50 (µM)
Reply with just the number (in µM).

QUERY: Lookup: IC50 / KB / CCCCCCCCCCCCn1c2nc(=O)n(C)c(=O)c-2cc2cccc([N+](=O)[O-])c21
RESULT: 20

QUERY: Enter reported IC50 observed with KB for CCCCCCCCn1c2nc(=O)n(CC(=O)OCC)c(=O)c-2cc2cccc([N+](=O)[O-])c21
RESULT: 3.6

QUERY: Missing value: IC50, KB, entry CCCCCCCCn1c2nc(=O)n(-c3ccccc3)c(=O)c-2cc2cc([N+](=O)[O-])ccc21 . Fill in?
RESULT: 7.6

QUERY: KB / IC50 / CCCCCCCCn1c2nc(=O)n(-c3ccccc3)c(=O)c-2cc2c([N+](=O)[O-])cccc21 : value?
RESULT: 8.4

QUERY: Which IC50 is reported with KB for this entry: CCCCCCCCCCCCn1c2nc(=O)[nH]c(=O)c-2cc2c([N+](=O)[O-])cccc21 ?
RESULT: 3.2

QUERY: Write down the reported IC50 of CCCCCCCCCCCCn1c2nc(=O)n(C)c(=O)c-2cc2c([N+](=O)[O-])cccc21 , test system: KB.
RESULT: 6.8

QUERY: What value of IC50 on KB does CCCCCCCCn1c2nc(=O)n(CC(=O)OCC)c(=O)c-2cc2c([N+](=O)[O-])cccc21 have?
RESULT: 7.6

QUERY: Please state recorded IC50 (tested on KB) of CCCCCCCCn1c2nc(=O)n(-c3ccccc3)c(=O)c-2cc2cccc([N+](=O)[O-])c21
RESULT: 6

QUERY: For the record CCCCCCCCCCCCn1c2nc(=O)n(C)c(=O)c-2cc2ccc([N+](=O)[O-])cc21 , what value of IC50 is listed for KB?
RESULT: 8

* * *

tested on: KB; experiment: In vitro antitumor activity against human epidermoid carcinoma KB cells by MTT assay.; type: functional, cell-based
readout.name: IC50 (µM)
// units = µM; emit number, no label

QUERY: Dear colleague, I am looking for the recorded IC50 of the following compound: CCCCCCCCn1c2nc(=O)n(-c3ccccc3)c(=O)c-2cc2ccc([N+](=O)[O-])cc21
RESULT: 12.4

QUERY: Look up IC50 for this compound: CCCCCCCCCCCCn1c2nc(=O)[nH]c(=O)c-2cc2cccc([N+](=O)[O-])c21
RESULT: 2.6

QUERY: Requested field: IC50. Item: CCCCCCCCn1c2nc(=O)n(CC(=O)OCC)c(=O)c-2cc2ccc([N+](=O)[O-])cc21
RESULT: 7.6

QUERY: What measured IC50 goes with CO[C@@]12[C@H](COC(N)=O)C3=C(C(=O)C(C)=C(N)C3=O)N1C[C@@H]1N[C@@H]12 ?
RESULT: 0.4

QUERY: Which IC50 is listed for CCCCCCCCn1c2nc(=O)n(CC(=O)OCC)c(=O)c-2cc2cc([N+](=O)[O-])ccc21 ?
RESULT: 30

QUERY: Requested field: IC50. Item: CCCCCCCCCCCCn1c2nc(=O)n(C)c(=O)c-2cc2cc([N+](=O)[O-])ccc21
RESULT: 15.8

QUERY: Consider the compound shown here: CCCCCCCCCCCCn1c2nc(=O)[nH]c(=O)c-2cc2cc([N+](=O)[O-])ccc21 What is its recorded IC50?
RESULT: 26.4

QUERY: Which measured IC50 value corresponds to CCCCCCCCCCCCn1c2nc(=O)[nH]c(=O)c-2cc2ccc([N+](=O)[O-])cc21 ?
RESULT: 12.8
